Items are presented alongside their recorded log10 of IC50.
- testTarget: recombinant human tau 4R2N (Homo sapiens (Human))
- Sequence (P10636 other isoform, or with tags, fused parts or gaps): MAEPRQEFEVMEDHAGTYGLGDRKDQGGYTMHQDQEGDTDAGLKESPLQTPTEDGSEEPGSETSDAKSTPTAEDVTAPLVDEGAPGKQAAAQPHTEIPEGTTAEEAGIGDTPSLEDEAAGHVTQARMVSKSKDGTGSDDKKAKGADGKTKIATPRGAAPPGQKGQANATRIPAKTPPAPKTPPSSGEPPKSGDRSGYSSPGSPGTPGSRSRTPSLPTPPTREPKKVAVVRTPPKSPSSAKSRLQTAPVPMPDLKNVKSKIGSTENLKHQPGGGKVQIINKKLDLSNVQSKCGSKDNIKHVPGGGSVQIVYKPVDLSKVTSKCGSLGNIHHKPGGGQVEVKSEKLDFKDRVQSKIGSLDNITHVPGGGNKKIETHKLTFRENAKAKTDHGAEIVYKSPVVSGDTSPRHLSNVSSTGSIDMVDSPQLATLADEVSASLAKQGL
- protocolText: AlphaLisa Assay (ALA), primary screen for inhibition of tau oligomer formation
- conditions: tau target 300 nM, Tris-HCl pH 7.4, 4 hours room temperature, compound 0.098 uM-50 uM
Please be aware that the numbers have been log10-transformed from IC50 in µM.

Cc1ccc(-c2c(CCC(=O)O)oc3ccc(Br)cc23)o1: 0.78

Give recorded log10 of IC50 with recombinant human tau 4R2N (Homo sapiens (Human)) for the following molecule: "CC(=O)CCc1oc2ccc(-c3ccncc3)cc2c1-c1ccc(Cl)s1"
0.88

Give recorded log10 of IC50 with recombinant human tau 4R2N (Homo sapiens (Human)) for the following molecule: "CC(=O)CCc1oc2ccc(-c3cccs3)cc2c1-c1ccc(C)o1"
0.12

Give recorded log10 of IC50 with recombinant human tau 4R2N (Homo sapiens (Human)) for the following molecule: "COc1ccc(-c2ccc3c(-c4ccc(C)o4)c(CCC(C)=O)oc3c2)cn1"
0.39

Give recorded log10 of IC50 with recombinant human tau 4R2N (Homo sapiens (Human)) for the following molecule: "CC(=O)CCc1oc2ccc(-c3ccc(Cl)nc3)cc2c1-c1ccc(Cl)s1"
1.19

Give recorded log10 of IC50 with recombinant human tau 4R2N (Homo sapiens (Human)) for the following molecule: "CC(=O)CCc1oc2cc(Br)ccc2c1-c1ccc(C)o1"
0.07
